In this section, each of the compounds is paired with its reported log Pe.
experiment: skin-PAMPA permeability assay (gradient-pH, UPLC-DAD); details: optimized assay conditions (4 h incubation, stirring); measured at the pH corresponding to the neutral form; acceptor pH 7.4
Report the value in cm/s with no unit label.

# return recorded log Pe for input `O=c1[nH]cc(F)c(=O)[nH]1`
-5.77

# return recorded log Pe for input `Nc1ccccc1N`
-5.42

# return recorded log Pe for input COC(=O)Cc1ccc(O)cc1 [4-Hydroxy-methylphenylacetate]
-5.07

# return recorded log Pe for input CC(=O)[C@@]1(O)CC[C@H]2[C@@H]3CCC4=CC(=O)CC[C@]4(C)[C@H]3CC[C@@]21C [Hydroxyprogesterone]
-4.70

# return recorded log Pe for input CC(C(=O)O)c1ccc(-c2ccccc2)c(F)c1 (stereo not drawn)
-3.69

# return recorded log Pe for input CC(C)Cc1ccc(C(C)C(=O)O)cc1 (stereo not drawn)
-3.61

====

assay: skin-PAMPA permeability assay (gradient-pH, UPLC-DAD); conditions: PAMPA, pH 7.4, log Pe, optimized assay conditions (4 h incubation, stirring); measured at the pH corresponding to the neutral form; acceptor pH 7.4
In this section, each of the compounds is paired with its reported Papp at 4 h, 50 μM.
Report the value in ×10⁻⁶ cm/s with no unit label.

[[record]]
compound = "CN1C(C(=O)Nc2ccccn2)=C(O)c2ccccc2S1(=O)=O"
resultnumber = 21.4

[[record]]
compound = "Oc1ccccc1O"
resultnumber = 4.07

[[record]]
compound = "C[C@]12CCC(=O)C=C1CC[C@@H]1[C@@H]2CC[C@@]2(C)[C@H]1CC[C@]2(O)C(=O)CO [Cortexolone]"
resultnumber = 3.55

[[record]]
compound = "COc1c2occc2cc2ccc(=O)oc12"
resultnumber = 50.1

[[record]]
compound = "Oc1ccc(O)cc1 [Hydroquinone]"
resultnumber = 1.35

[[record]]
compound = "CC(=O)[C@H]1CC[C@H]2[C@@H]3CCC4=CC(=O)CC[C@]4(C)[C@H]3CC[C@]12C"
resultnumber = 74.1


# return recorded Papp at 4 h, 50 μM for input `COc1ccccc1`
45.7

# return recorded Papp at 4 h, 50 μM for input O=C(OCc1ccccc1)c1cccnc1 [Benzyl nicotinate]
69.2

# return recorded Papp at 4 h, 50 μM for input `COc1ccc2c(c1)c(CC(=O)O)c(C)n2C(=O)c1ccc(Cl)cc1`
39.8

====

In this section, each of the compounds is paired with its reported log Pe.
assay: skin-PAMPA permeability assay (gradient-pH, UPLC-DAD); details: with stirring, 30 min incubation; neutral form (donor pH 3.0, aminopyrine pH 7.0), acceptor pH 7.4, 32 °C

Worked examples follow.
[[record]]
compound = "CC(C)Cc1ccc(C(C)C(=O)O)cc1 (stereo not shown) [Ibuprofen]"
readoutlabel = "log Pe"
result = "-2.71(±0.04) cm/s"

[[record]]
compound = "COC1=CC(=O)C[C@@H](C)[C@]12Oc1c(Cl)c(OC)cc(OC)c1C2=O [Griseofulvin]"
readoutlabel = "log Pe"
result = "-5.61(±0.01) cm/s"

[[record]]
compound = "CC(=O)[C@H]1CC[C@H]2[C@@H]3CCC4=CC(=O)CC[C@]4(C)[C@H]3CC[C@]12C [Progesterone]"
readoutlabel = "log Pe"
result = "-3.25(±0.25) cm/s"


# input for lookup
# return recorded log Pe for input CC(C(=O)O)c1ccc(-c2ccccc2)c(F)c1 (stereo not shown) [Flurbiprofen]
-2.98(±0.13) cm/s

Reference source: paper PMC8915600
